- System: Cryptococcus neoformans cell lysis, plate reader
- measurement-notes: fungal cell lysis by compounds – dry powder, set 2, dose response (AID 743403)
The source made the active and inactive calls. The rule behind the calls is not given here.
Valid outcomes are listed here; reply with one: True = active, False = inactive

Assay result, entry `NCC(=O)Nc1ccc(-n2nc(C(F)(F)F)cc2-c2ccc3c(ccc4ccccc43)c2)cc1` — outcome?
True

What classification did `S=c1[nH]c2cccc(Cl)c2n1CCOc1ccccc1` end up with in this test?
True

How did this test come out for `Fc1cccc2c1[nH]c(=S)n2CCOc1ccccc1` ?
True

What did the test return for `CSc1nc2ccccc2n1CCOc1ccc(C)cc1` ?
False

Recorded call for `FC(F)(F)c1cccc(OCCn2cnc3ccccc32)c1` ?
False

As a next step, examine the compound that follows.
State the result this test recorded for `CC(C)Oc1cccc(OCCn2cnc3ccccc32)c1` .
True

// provenance: PubChem BioAssay AID743403
